Listed here are molecules together with their documented DC50.
target: BRAF D594G (Homo sapiens, UniProt P15056, D594G); construct: Horizon Discovery (HCT-116 BRAF−/− cells); host or cells: HCT-116 BRAF−/− cells, clone 63, lentiviral transduction; test: BRAF HiBiT degradation assay, C-terminal HiBiT-tagged BRAF D594G overexpressed in HCT-116 BRAF−/− cells (clone 63), Nano-Glo HiBiT Lytic assay; format: cell-based; conditions: BRAF D594G; DC50 at 50%: fitted conc. at Y=50
Sequence (P15056 whole entry D594G): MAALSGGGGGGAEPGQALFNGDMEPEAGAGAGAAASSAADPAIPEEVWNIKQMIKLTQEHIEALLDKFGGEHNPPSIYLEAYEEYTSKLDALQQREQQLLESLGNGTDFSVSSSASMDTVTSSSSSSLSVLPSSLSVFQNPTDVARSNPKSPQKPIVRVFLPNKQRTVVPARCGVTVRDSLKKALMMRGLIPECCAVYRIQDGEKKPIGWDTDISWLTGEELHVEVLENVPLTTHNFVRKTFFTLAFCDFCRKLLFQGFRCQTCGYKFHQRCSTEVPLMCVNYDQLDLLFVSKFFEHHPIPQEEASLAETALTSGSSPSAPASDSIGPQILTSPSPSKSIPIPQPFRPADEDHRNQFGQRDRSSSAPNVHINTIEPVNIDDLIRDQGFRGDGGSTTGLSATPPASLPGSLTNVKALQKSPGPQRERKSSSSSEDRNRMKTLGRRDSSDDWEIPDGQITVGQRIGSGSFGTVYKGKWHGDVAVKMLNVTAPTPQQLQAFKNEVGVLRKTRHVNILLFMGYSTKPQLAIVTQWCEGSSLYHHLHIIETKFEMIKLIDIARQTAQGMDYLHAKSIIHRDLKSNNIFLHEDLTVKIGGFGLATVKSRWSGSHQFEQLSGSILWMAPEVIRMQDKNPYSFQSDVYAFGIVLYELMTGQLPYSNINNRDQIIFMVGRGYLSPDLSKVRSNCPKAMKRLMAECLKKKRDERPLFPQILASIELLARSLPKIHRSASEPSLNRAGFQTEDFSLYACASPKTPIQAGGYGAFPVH

[
  {
    "Molecule": "CCCS(=O)(=O)Nc1cccc(-c2nc(C3CCN(C(=O)C4CCN(C(=O)CC5CCN(c6ccc(C7CCC(=O)NC7=O)cn6)CC5)CC4)CC3)sc2-c2ccnc(N)n2)c1F (racemic) [Compound 203]",
    "Measured Target": "BRAF D594G (Homo sapiens, UniProt P15056, D594G)",
    "Measurement Name": "DC50",
    "Test Result": "< 10 nM"
  },
  {
    "Molecule": "CCCS(=O)(=O)Nc1cccc(-c2nc(C(C)(C)C)sc2-c2ccnc(Nc3cnn(C4CCN(C(=O)[C@H]5CC[C@H](Oc6ccc(C7CCC(=O)NC7=O)cn6)CC5)CC4)c3)n2)c1F (mixture of isomers) [Compound 109]",
    "Measured Target": "BRAF D594G (Homo sapiens, UniProt P15056, D594G)",
    "Measurement Name": "DC50",
    "Test Result": "> 500 nM"
  },
  {
    "Molecule": "CCCS(=O)(=O)Nc1cccc(-c2nc(C(C)(C)C)sc2-c2ccnc(Nc3ccc(N4CCN(CC5CCN(c6ccc([C@H]7CCC(=O)NC7=O)cc6)CC5)CC4)c(F)c3)n2)c1F [Compound 87]",
    "Measured Target": "BRAF D594G (Homo sapiens, UniProt P15056, D594G)",
    "Measurement Name": "DC50",
    "Test Result": "> 500 nM"
  },
  {
    "Molecule": "CCCS(=O)(=O)Nc1cccc(-c2nc(C(C)(C)C)sc2-c2ccnc(Nc3cccc(C4CCN(CC[C@@H]5CCN(c6ccc(C7CCC(=O)NC7=O)cn6)C5)CC4)c3)n2)c1F (mixture of isomers) [Compound 75]",
    "Measured Target": "BRAF D594G (Homo sapiens, UniProt P15056, D594G)",
    "Measurement Name": "DC50",
    "Test Result": "> 500 nM"
  }
]

Please examine the following record next.
Task item: What does the record list as DC50 for CCCS(=O)(=O)Nc1cccc(-c2nc(C(C)(C)C)sc2-c2ccnc(Nc3cccc(C4CCN(CC5CCN(c6ccc7c(=O)n(C8CCC(=O)NC8=O)ccc7c6)CC5)CC4)c3)n2)c1F (racemic) [Compound 76] ?
Reply: > 500 nM

----------
molecular target: BRAF G466V (Homo sapiens, UniProt P15056, G466V); construct: Horizon Discovery (HCT-116 BRAF−/− cells); host or cells: HCT-116 BRAF−/− cells, clone 8, lentiviral transduction; experiment: BRAF HiBiT degradation assay, C-terminal HiBiT-tagged BRAF G466V overexpressed in HCT-116 BRAF−/− cells (clone 8), Nano-Glo HiBiT Lytic assay; type: cell-based; conditions: BRAF G466V; DC50 at 50%: fitted conc. at Y=50
Sequence (P15056 whole entry G466V): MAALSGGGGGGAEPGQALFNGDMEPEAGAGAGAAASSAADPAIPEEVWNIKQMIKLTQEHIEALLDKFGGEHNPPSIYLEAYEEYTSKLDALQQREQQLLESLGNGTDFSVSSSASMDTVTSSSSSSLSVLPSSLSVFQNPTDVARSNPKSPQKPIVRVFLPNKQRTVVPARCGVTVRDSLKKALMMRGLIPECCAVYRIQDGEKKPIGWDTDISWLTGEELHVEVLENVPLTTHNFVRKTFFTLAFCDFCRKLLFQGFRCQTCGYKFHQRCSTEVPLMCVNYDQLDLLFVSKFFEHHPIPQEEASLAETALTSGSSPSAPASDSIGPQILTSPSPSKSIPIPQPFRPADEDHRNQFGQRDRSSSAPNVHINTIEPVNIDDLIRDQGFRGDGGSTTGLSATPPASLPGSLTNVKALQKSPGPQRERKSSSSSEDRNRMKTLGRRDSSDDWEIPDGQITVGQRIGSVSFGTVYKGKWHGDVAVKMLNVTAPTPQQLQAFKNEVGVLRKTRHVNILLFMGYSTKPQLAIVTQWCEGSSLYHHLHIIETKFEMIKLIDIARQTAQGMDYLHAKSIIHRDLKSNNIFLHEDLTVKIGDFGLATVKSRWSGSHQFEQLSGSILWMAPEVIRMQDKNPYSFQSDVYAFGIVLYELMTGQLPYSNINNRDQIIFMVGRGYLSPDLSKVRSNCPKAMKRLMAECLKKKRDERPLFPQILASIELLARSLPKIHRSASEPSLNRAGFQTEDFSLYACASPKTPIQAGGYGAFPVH
Measurement Name: DC50

[
  {
    "Molecule": "CCCS(=O)(=O)Nc1cccc(-c2nc(C3CCC4(CC3)CCN(C(=O)CCCCCc3ccc5c(c3)C(=O)N(C3CCC(=O)NC3=O)C5)CC4)sc2-c2ccnc(N)n2)c1F (racemic)",
    "Measured Target": "BRAF G466V (Homo sapiens, UniProt P15056, G466V)",
    "DC50": "> 500 nM"
  }
]

Task item: For the molecule shown here, CCCS(=O)(=O)Nc1cccc(-c2nc(C3CCN(C(=O)C4(C)CCN(C(=O)C5CCN(c6ccc(C7CCC(=O)NC7=O)cn6)CC5)CC4)CC3)sc2-c2ccnc(N)n2)c1F (racemic) , give the reported DC50.
Reply: < 10 nM

Task item: Consider the molecule shown here: CCCS(=O)(=O)Nc1cccc(-c2nc(C(C)(C)C)sc2-c2ccnc(Nc3cccc(OC4CCN(C(=O)[C@H]5CC[C@H](Oc6ccc(C7CCC(=O)NC7=O)cn6)CC5)CC4)c3)n2)c1F (mixture of isomers) What is its recorded DC50?
Reply: > 500 nM

The measurements presented in this section are drawn from patent US20260317324A1.
